- system.name: DCN1 (DCUND1) protein PONY domain (Homo sapiens (Human), UniProt Q96GG9)
- Sequence (Q96GG9 60-248): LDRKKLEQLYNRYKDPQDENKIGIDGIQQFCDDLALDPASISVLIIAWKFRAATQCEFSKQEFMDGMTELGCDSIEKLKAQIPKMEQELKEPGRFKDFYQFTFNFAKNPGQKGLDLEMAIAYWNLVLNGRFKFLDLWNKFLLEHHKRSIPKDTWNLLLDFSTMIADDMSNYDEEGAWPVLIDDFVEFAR
- assay.summary: TR-FRET assay, DCN1 binding with FAM-labeled probe
- test.conditions: 24 hr after treatment with compound; read-out: TR FRET IC50 24 hr
pIC50: −log10 of the molar value.
The following molecules are shown together with reported pIC50 values.

molecule | pIC50
CCN1C(=O)[C@@H](NC(=O)c2cccc(C(F)(F)F)c2)[C@@H](c2ccc(F)cc2)c2c(CC/C=C/C(=O)OC)nn(-c3ccccc3)c21 (racemic) | 6.00 to 6.70
C=C(Cc1nn(-c2ccccc2)c2c1[C@H](c1ccc(F)cc1)[C@H](NC(=O)c1cccc(C(F)(F)F)c1)C(=O)N2CC)C(N)=O (racemic) | 6.00 to 6.70
C=C(CN1CC2CC1C2)C(=O)NCc1nn(-c2ccccc2)c2c1[C@H](c1ccc(F)cc1)[C@H](NC(=O)c1cccc(C(F)(F)F)c1)C(=O)N2CC (mixture of isomers) | ≥ 6.70
CCN1C(=O)[C@@H](NC(=O)c2nccc(C(F)(F)F)n2)[C@H](c2ccc(F)cc2)c2c(CNC(=O)CC#N)nn(-c3ccccc3)c21 | 5.52 to 6.00
CCN1C(=O)[C@@H](NC(=O)c2cccc(C(F)(F)F)c2)[C@@H](c2ccc(F)cc2)c2c([C@@H](CN(C)C)NC(N)=O)nn(-c3ccccc3)c21 (mixture of isomers) | 6.00 to 6.70
CCN1C(=O)[C@@H](NC(=O)c2cccc(C(F)(F)F)c2)[C@@H](C2CC2)c2c(C(=O)N3CCOC[C@H]3C#N)nn(-c3ccccc3)c21 | ≥ 6.70
CCN1C(=O)[C@@H](NC(=O)c2cccc(C(F)(F)F)c2)[C@@H](c2ccc(F)cc2)c2c(NC(=O)C3=CCC3)nn(-c3ccccc3)c21 (racemic) | ≥ 6.70
C=C(CO)C(=O)NCc1nn(-c2ccccc2)c2c1[C@H](c1ccc(F)cc1)[C@H](NC(=O)c1cccc(C(F)(F)F)c1)C(=O)N2CC (racemic) | 6.00 to 6.70
CCN1C(=O)[C@@H](NC(=O)c2cccc(C(F)(F)F)c2)[C@@H](c2ccc(F)cc2)c2c(C(=O)N3CCC[C@H]3C#N)nn(-c3cccc(OCCCN4CCC5(CC4)COC5)c3)c21 | ≥ 6.70
CCN1C(=O)[C@@H](NC(=O)c2cccc(C(F)(F)F)c2)[C@@H](c2ccc(F)cc2)c2c(C(=O)N(C)CC#N)nn(-c3ccccc3)c21 (racemic) [Compound I-5] | ≥ 6.70
CCN1C(=O)[C@@H](NC(=O)c2cccc(C(F)(F)F)c2)[C@@H](c2ccc(F)cc2)c2c(CN(C)C(=O)/C=C/CN(C)C)nn(-c3ccccc3)c21 | 6.00 to 6.70
CCN1C(=O)[C@@H](NC(=O)c2cccc(C(F)(F)F)c2C)[C@@H](C2CC2)c2c(C(=O)N3[C@H](C#N)C[C@H]4C[C@H]43)nn(C3CCOCC3)c21 | ≥ 6.70
CCN1C(=O)[C@@H](NC(=O)c2cccc(C(F)(F)F)c2)[C@@H](c2ccc(F)cc2)c2c(C(=O)N3[C@H](C#N)C[C@H]4C[C@H]43)nn([C@@H]3CCOC3)c21 (single isomer, unassigned) [Compound I-583] | 5.52 to 6.00
